Source listed as PubChem BioAssay (NCATS).

Assay: qHTS profiling for inhibitors of Plasmodium falciparum (DD2) proliferation (AID 743323)
Conditions: lower = more inhibition; at 28.7 µM (top of the series)
valueKind: activity, percent of control (%)
Give a bare numeral; the unit % is implied.

CC(=O)Nc1ccc([C@H](C)C(=O)Nc2ncc(C(C)C)s2)cc1
101

Any idea what its activity, percent of control is? The compound is COc1cc(N2CCC(N3CCN(C)CC3)CC2)ccc1Nc1ncc(Cl)c(Nc2ccccc2S(=O)(=O)C(C)C)n1
0.218

Try the compound CCOc1ccc(Nc2nc(-c3c(C)nc4ccccn34)cs2)cc1
5.76

Try the compound CO[C@H]1C=CC=C(C)C(=O)NC2=CC(=O)C(NCCN(C)C)=C(C[C@@H](C)C[C@H](OC)[C@@H](O)[C@@H](C)C=C(C)[C@@H]1OC(N)=O)C2=O
-0.115

Try the compound C[C@@H]1CCN(C(=O)CC#N)C[C@H]1N(C)c1ncnc2[nH]ccc12
90.1

Try the compound CC1=C(/C=C/C(C)=C/C=C/C(C)=C/C(=O)Nc2ccc(O)cc2)C(C)(C)CCC1
22.9

Try the compound COc1ncc(-c2ccc3nccc(-c4ccnnc4)c3c2)cc1NS(=O)(=O)c1ccc(F)cc1F
-0.177

Try the compound CN(C)C1CCN(C(=O)c2ccc(NC(=O)Nc3nc(N4CCOCC4)nc(N4CCOCC4)n3)cc2)CC1
2

Try the compound CC(C)(C)COc1ccc(-n2cc(C(=O)O)cn2)cc1C#N
88.8

Try the compound N#Cc1ccc(NC(=O)Nc2ccccc2Br)c2n[nH]nc12
69.6

###

Experiment: qHTS of pediatric cancer cell lines to identify multiple opportunities for drug repurposing: Primary screen for Rh18 cells (AID 1347102); note: % is set by controls: 0 for no effect and ±100 for the full control effect; nearly all actives have a fitted effect of over 65% in size
Settings: Rh18 rhabdomyosarcoma viability, CellTiter-Glo luminescence, 48 h; series mostly up to 46 µM
Records with an inconclusive call do not appear. The source made the active and inactive calls. The call rests on the fitted dose curve; in most records, active means well fitted cell-killing curve with a large enough effect; inconclusive means small, poorly fitted or top-dose-only effect; inactive means flat fitted curve, though single readings scatter.
Pick one and only one: active, inactive

O=C(O)c1cc(O)c2c(c1)C(=O)c1cccc(O)c1C2=O
inactive

Given C[C@@H](O)[C@H]1C(=O)N2C(C(=O)O)=C(S[C@@H]3CN[C@H](C(=O)N(C)C)C3)[C@H](C)[C@H]12 , state the outcome it received in this test.
inactive

###

Assay: Quantitative High-Throughput drug screen in 47 multiple myeloma cell lines against the NCATS MIPE library collection: OCIMY1_PLB cell viability assay (AID 1918979); note: nearly all actives have a fitted effect of over 35% in size;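 for viability: 100% = DMSO-only wells and 0% = cell-free media-only wells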
Conditions: OCI-MY1 myeloma viability, CellTiter-Glo ATP, 48 h; series mostly up to 45.8 µM
Inconclusive results are not listed. The source made the active and inactive calls. Calls come from the whole dose curve; as a rule, active = well fitted cell-killing curve with a large enough effect; inconclusive = small, poorly fitted or top-dose-only effect, or effect the other way; inactive = no such curve, though single readings can be large or run the other way.
Pick one and only one: 1 (yes) = active, 0 (no) = inactive

CCC(=O)O[C@]1(C(=O)CO)CC[C@H]2[C@@H]3CCC4=CC(=O)CC[C@]4(C)[C@@H]3CC[C@@]21C
0 (no)
COc1ccc(-c2coc3cc(O)ccc3c2=O)cc1
0 (no)
CC[C@H]1OC(=O)[C@H](C)[C@@H](O[C@H]2C[C@@](C)(OC)[C@@H](O)[C@H](C)O2)[C@H](C)[C@@H](O[C@@H]2O[C@H](C)C[C@H](N(C)C)[C@@H]2O)[C@](C)(O)C[C@@H](C)CN(C)[C@H](C)[C@@H](O)[C@]1(C)O
0 (no)

Given O=c1cc(-c2ccccc2)oc2cc(O)cc(O)c12 , state the outcome it received in this test.
0 (no)

Try the molecule COc1ccc2c(Oc3ccc(NC(=O)c4c(C)n(CC(C)(C)O)n(-c5ccccc5)c4=O)nc3)ccnc2c1
0 (no)

Try the molecule CC[C@]1(O)C[C@@H]2CN(CCc3c([nH]c4ccccc34)[C@@](C(=O)OC)(c3cc4c(cc3OC)N(C=O)[C@@H]3C45CCN4CC=C[C@](CC)([C@H]45)[C@@H](OC(C)=O)[C@]3(O)C(=O)OC)C2)C1 (stereo not given in full)
1 (yes)
